target: T1, AAV9; assay: SPR, AAV on CM5 chip;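 further: surface plasmon resonance with AAV amine-coupled to the chip as ligand, nanobodies injected as analyte over a concentration series, rate constants and affinity fitted from binding curves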
T1 construct: also called adeno-associated virus serotype 9
parameter: pKd
One number for each entry, as −log10 of the molar value.

Before answering, review these 2 worked examples.
[[record]]
binder = "A4-046 (VHH) VHH: VQLQESGGGLVQPGGSLRLSCAASGSRFSINTMGWYRQAPGKQRELVATVTRGGSTNYADSVKGRFTISRDNAKNTVYLQMNSLRPEDTAVYYCHVDEVRQSSWTTSNLWGQGTQVTVSS"
observed_result = 7.79

[[record]]
binder = "A4-041 (VHH) VHH: VQLQESGGGLVQPGGSLRLSCAASGRGFSINTMGWYRQAPGKQRELVATVTRGGSTNYANSVKGRFTISRDNAKNTVYLQMNSLRPEDTAVYYCHVDELRQSSWTTSNLWGQGTQVTVSS"
observed_result = 8.09


// batch mode: one pKd value per listed entry
1. A4-019 (VHH) VHH: VQLQESGGGLVQAGGSLRLSCAASGSTFSINTMGWYRQAPGKQRELVATITRGGSTNYADSVKGRFTISRDNAKNTVYLQMNSLRPEDTAVYYCHVDEVRQSSWTTSNIWGQGTQVTVSS
2. A4-029 (VHH) VHH: VQLQESGGGLVQPGGSLRLSCAASGSNFSINTMGWYRQRAGKQRELVATVTRGGSTNYADSVKGRFTISRDNAKNTVYLQMNSLRPEDTAVYYCHIDEIRESSWTTSNLWGQGTQVTVSS

// result
1: 6.35; 2: 7.84
